- Test system: Escherichia coli TOP10;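 also: peptides expressed intracellularly from a pBAD plasmid library in pooled LB shake-flask culture, induced with 0.3% L-arabinose, DNA abundance read by NGS, three biological replicates, DESeq2 with apeglm shrinkage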
- Assay info: shrunken log2 fold change of peptide-encoding DNA abundance (4.5 h post-induction vs induction); higher = less antimicrobial activity (less host growth inhibition)
- Condition notes: time post-induction: 4.5 h; library: site-saturation at positions 5, 18, 19, 20
Value type: shrunken log2 fold change

1) RRIRDRPPRLPRPRPRPEFFPRP: 0.896

For each of the items listed, what is its shrunken log2 fold change?
1. RRIRNRPPRLPRPRPRPASMPRP
2. RRIRNRPPRLPRPRPRPPFKPRP
3. RRIRYRPPRLPRPRPRPHIAPRP
4. RRIRLRPPRLPRPRPRPTFWPRP
5. RRIRERPPRLPRPRPRPYRYPRP

Result:
-0.064
-0.325
-0.408
0.303
-0.107

Please report shrunken log2 fold change for every entry that follows.
1. RRIRHRPPRLPRPRPRPIMHPRP
2. RRIRMRPPRLPRPRPRPSHIPRP
3. RRIRGRPPRLPRPRPRPHGQPRP
4. RRIRRRPPRLPRPRPRPRFGPRP
5. RRIRQRPPRLPRPRPRPDLWPRP
6. RRIRWRPPRLPRPRPRPKLPPRP
7. RRIRARPPRLPRPRPRPELDPRP
8. RRIRERPPRLPRPRPRPKHTPRP

Result:
[-0.375, -0.659, 0.578, 0.438, 0.514, 0.247, 1.78, -0.127]

The origin of these recorded values is the supplement of paper PMC9112550.
